Data provenance is PubChem BioAssay.

assay: SK-BR-3 cell growth inhibitors, pilot screen, 24 h, human (AID 572); conditions: SK-BR-3 viability, CellTiter-Glo luminescence, at 10 µM, hits give low values;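 note: compound exposure lasted between 18 and 24 h rather than exactly 24 h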
Could you mark each record Yes if its viability falls strictly under 90%, and No if it equals or exceeds it?

{"COMPOUND": "CC1(C)S[C@@H]2[C@H](NC(=O)[C@H](N)c3ccccc3)C(=O)N2[C@H]1C(=O)O", "QUALITATIVE_LABEL": "No"}
{"COMPOUND": "O=C(Cn1c(=O)oc2ccccc21)Nc1ccc(S(=O)(=O)N2CCCCC2)cc1", "QUALITATIVE_LABEL": "No"}
{"COMPOUND": "c1ccc2c(-c3nc(-c4ccncc4)no3)cccc2c1", "QUALITATIVE_LABEL": "Yes"}
{"COMPOUND": "O=C(NCCCN1CCCC1=O)c1ccc2c(=O)n(Cc3ccco3)c(=S)[nH]c2c1", "QUALITATIVE_LABEL": "No"}
{"COMPOUND": "CCC(=O)Nc1cc(C)c(NC(=O)C23CC4CC(CC(C4)C2)C3)cn1", "QUALITATIVE_LABEL": "No"}
{"COMPOUND": "CCn1cc(C(=O)N2CCN(C(=O)c3ccco3)CC2)c2cc(OC)c(OC)cc2c1=O", "QUALITATIVE_LABEL": "No"}
{"COMPOUND": "Cc1cccc(C(=O)N(C)c2nnc(-c3ccncc3)s2)c1", "QUALITATIVE_LABEL": "No"}
{"COMPOUND": "CCCCN(CC)S(=O)(=O)N1CCC(C(=O)NCc2ccc(F)cc2)CC1", "QUALITATIVE_LABEL": "No"}
{"COMPOUND": "CCOC(=O)Cc1csc(NC(=O)c2cccc(OC)c2)n1", "QUALITATIVE_LABEL": "Yes"}
{"COMPOUND": "CCOc1nc(-c2ccccc2)ccc1-c1noc(-c2ccc(OC)c(OC)c2)n1", "QUALITATIVE_LABEL": "Yes"}
{"COMPOUND": "Cc1cccc(-n2c(SCc3cc(=O)n4ccsc4n3)nc3ccccc32)c1", "QUALITATIVE_LABEL": "No"}
{"COMPOUND": "CC1(C2(O)CC(c3ccccc3)ON2)CCCCC1 (stereo not drawn)", "QUALITATIVE_LABEL": "No"}
{"COMPOUND": "c1ccc2c(-c3nc(C4CCCCC4)no3)cc(-c3ccncc3)nc2c1", "QUALITATIVE_LABEL": "Yes"}
{"COMPOUND": "C=CCn1c(SCC#N)nc2c(c1=O)C(C)(C)Cc1ccccc1-2", "QUALITATIVE_LABEL": "No"}
{"COMPOUND": "COc1ccc(OCCN2C(=O)NC(C)(c3ccc(C)cc3)C2=O)cc1 (stereo not drawn)", "QUALITATIVE_LABEL": "No"}
{"COMPOUND": "COc1ccc(CCn2c(N)c(C#N)c3nc4ccccc4nc32)cc1OC", "QUALITATIVE_LABEL": "Yes"}
{"COMPOUND": "CCOC(=O)c1c(N)c(C#N)nn1-c1ccccc1C(=O)OC", "QUALITATIVE_LABEL": "No"}
{"COMPOUND": "Cc1csc(NC(=O)CSc2nnc(Cc3cccn3C)n2-c2ccc(F)cc2)n1", "QUALITATIVE_LABEL": "Yes"}
{"COMPOUND": "CCN(CC)c1ccc2c(c1)CCCN2", "QUALITATIVE_LABEL": "Yes"}
{"COMPOUND": "c1ccc2c(c1)CCCC2C1=NCCN1 (stereo not drawn)", "QUALITATIVE_LABEL": "No"}
{"COMPOUND": "COc1ccc(-n2ncc3c(NCc4cccs4)ncnc32)cc1", "QUALITATIVE_LABEL": "No"}
{"COMPOUND": "Cc1ccnc(NS(=O)(=O)c2ccc(NC(=O)Cc3cccs3)cc2)n1", "QUALITATIVE_LABEL": "No"}
